Would you kindly list BI for each of these compounds?
Tested on: 266 human PDZ domains (PDZome)
TEST_DETAILS: Holdup assay (chromatographic retention, PDZome-binding profile, BI)
Parameters: key: binding intensity: 0.00 = no binding, 1.00 = maximal binding
CONDITION_SET: PDZ domain SCRIB-2
*1 amine or outer side, *2 acyl side, *3 side chain or, on linkers, in order; H or OH if unused. Where a SMILES comes first, the peptide text is derived from it. The star is where a group is joined. X1 = O=C(CCCC[C@@H]1SC[C@@H]2NC(=O)N[C@@H]21)NCCCOCCOCCOCCCN*; Suc = O=C(CCC(=O)[*:2])[*:1]
Numbers only.

COMPOUND	VAL
CC[C@H](C)[C@H](NC(=O)[C@H](CCC(N)=O)NC(=O)[C@@H](NC(=O)[C@H](Cc1c[nH]cn1)NC(=O)[C@H](CCC(N)=O)NC(=O)[C@H](CC(=O)O)NC(=O)[C@H](CCC(=O)O)NC(=O)[C@H](CC(=O)O)NC(=O)CCC(=O)NCCCOCCOCCOCCCNC(=O)CCCC[C@@H]1SC[C@@H]2NC(=O)N[C@@H]21)[C@@H](C)O)C(=O)N[C@H](C(=O)N[C@@H](CCCCN)C(=O)N[C@H](C(=O)O)C(C)C)[C@@H](C)O [PTEN_11]	-0.183

Count: 3. Required value per item: BI.
1. CC[C@H](C)[C@H](NC(=O)[C@H](CCC(N)=O)NC(=O)[C@@H](NC(=O)[C@H](Cc1c[nH]cn1)NC(=O)[C@H](CCC(N)=O)NC(=O)[C@H](CC(=O)O)NC(=O)[C@H](CCC(=O)O)NC(=O)[C@H](CC(=O)O)NC(=O)CCC(=O)NCCCOCCOCCOCCCNC(=O)CCCC[C@@H]1SC[C@@H]2NC(=O)N[C@@H]21)[C@@H](C)O)C(=O)N[C@H](C(=O)N[C@@H](CCCNC(=N)N)C(=O)N[C@H](C(=O)O)C(C)C)[C@@H](C)O [PTEN_KR] ({X1-Suc}-DEDQHTQITRV-OH)
2. CC[C@H](C)[C@H](NC(=O)[C@H](CCC(N)=O)NC(=O)[C@@H](NC(=O)[C@H](Cc1c[nH]cn1)NC(=O)[C@H](CCC(N)=O)NC(=O)[C@H](CC(=O)O)NC(=O)[C@H](CCC(=O)O)NC(=O)[C@H](CC(=O)O)NC(=O)[C@H](Cc1ccccc1)NC(=O)[C@@H]1CCCN1C(=O)CCC(=O)NCCCOCCOCCOCCCNC(=O)CCCC[C@@H]1SC[C@@H]2NC(=O)N[C@@H]21)[C@@H](C)O)C(=O)N[C@H](C(=O)N[C@@H](CCCCN)C(=O)N[C@H](C(=O)O)C(C)C)[C@@H](C)O [PTEN_13] ({X1-Suc}-PFDEDQHTQITKV-OH)
3. CC[C@H](C)[C@H](NC(=O)[C@H](CCC(N)=O)NC(=O)[C@@H](NC(=O)[C@H](Cc1c[nH]cn1)NC(=O)[C@H](CCC(N)=O)NC(=O)[C@H](CC(=O)O)NC(=O)[C@H](CCC(=O)O)NC(=O)[C@H](CC(=O)O)NC(=O)CCC(=O)NCCCOCCOCCOCCCNC(=O)CCCC[C@@H]1SC[C@@H]2NC(=O)N[C@@H]21)[C@@H](C)O)C(=O)N[C@H](C(=O)N[C@@H](CCCCNC(C)=O)C(=O)N[C@H](C(=O)O)C(C)C)[C@@H](C)O [PTEN_Ac]

[0.147, -0.031, 0.163]

---

Tested on: IL16-2
TEST_DETAILS: Holdup assay, IL16-2
Assay type: binding, human
*1 amine or outer side, *2 acyl side, *3 side chain or, on linkers, in order; H or OH if unused. Where a SMILES comes first, the peptide text is derived from it. The star is where a group is joined. X1 = O=C(CCCC[C@@H]1SC[C@@H]2NC(=O)N[C@@H]21)NCCCOCCOCCOCCCN*; Suc = O=C(CCC(=O)[*:2])[*:1]
For each record, write down the corresponding BI.
One number for each entry.

Use the examples below as a reference point.
COMPOUND	TESTED_ON	BI
CC[C@H](C)[C@H](NC(=O)[C@H](CCC(N)=O)NC(=O)[C@@H](NC(=O)[C@H](Cc1c[nH]cn1)NC(=O)[C@H](CCC(N)=O)NC(=O)[C@H](CC(=O)O)NC(=O)[C@H](CCC(=O)O)NC(=O)[C@H](CC(=O)O)NC(=O)CCC(=O)NCCCOCCOCCOCCCNC(=O)CCCC[C@@H]1SC[C@@H]2NC(=O)N[C@@H]21)[C@@H](C)O)C(=O)N[C@H](C(=O)N[C@@H](CCCCN)C(=O)N[C@H](C(=O)O)C(C)C)[C@@H](C)O	IL16-2	-0.132
CC[C@H](C)[C@H](NC(=O)[C@H](CCC(N)=O)NC(=O)[C@@H](NC(=O)[C@H](Cc1c[nH]cn1)NC(=O)[C@H](CCC(N)=O)NC(=O)[C@H](CC(=O)O)NC(=O)[C@H](CCC(=O)O)NC(=O)[C@H](CC(=O)O)NC(=O)CCC(=O)NCCCOCCOCCOCCCNC(=O)CCCC[C@@H]1SC[C@@H]2NC(=O)N[C@@H]21)[C@@H](C)O)C(=O)N[C@H](C(=O)N[C@@H](CCCNC(=N)N)C(=O)N[C@H](C(=O)O)C(C)C)[C@@H](C)O [PTEN_KR] ({X1-Suc}-DEDQHTQITRV-OH)	IL16-2	-0.114

Then there is this compound:
// lookup BI for CC[C@H](C)[C@H](NC(=O)[C@H](CCC(N)=O)NC(=O)[C@@H](NC(=O)[C@H](Cc1c[nH]cn1)NC(=O)[C@H](CCC(N)=O)NC(=O)[C@H](CC(=O)O)NC(=O)[C@H](CCC(=O)O)NC(=O)[C@H](CC(=O)O)NC(=O)[C@H](Cc1ccccc1)NC(=O)[C@@H]1CCCN1C(=O)CCC(=O)NCCCOCCOCCOCCCNC(=O)CCCC[C@@H]1SC[C@@H]2NC(=O)N[C@@H]21)[C@@H](C)O)C(=O)N[C@H](C(=O)N[C@@H](CCCCN)C(=O)N[C@H](C(=O)O)C(C)C)[C@@H](C)O [PTEN_13] ({X1-Suc}-PFDEDQHTQITKV-OH)
-0.025

---

TESTED_ON: ARHGEF12-1 (Homo sapiens)
Sequence (Q9NZN5 72-151): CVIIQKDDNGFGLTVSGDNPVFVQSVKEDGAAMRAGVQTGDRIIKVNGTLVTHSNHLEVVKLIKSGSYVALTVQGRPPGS
TEST_DETAILS: Holdup assay, ARHGEF12-1
Assay type: binding
*1 amine or outer side, *2 acyl side, *3 side chain or, on linkers, in order; H or OH if unused. Where a SMILES comes first, the peptide text is derived from it. The star is where a group is joined. X1 = O=C(CCCC[C@@H]1SC[C@@H]2NC(=O)N[C@@H]21)NCCCOCCOCCOCCCN*; Suc = O=C(CCC(=O)[*:2])[*:1]
Record form. Attribute: BI. Fill in for each entry.

Use the examples below as a reference point.
COMPOUND	BI
CC[C@H](C)[C@H](NC(=O)[C@H](CCC(N)=O)NC(=O)[C@@H](NC(=O)[C@H](Cc1c[nH]cn1)NC(=O)[C@H](CCC(N)=O)NC(=O)[C@H](CC(=O)O)NC(=O)[C@H](CCC(=O)O)NC(=O)[C@H](CC(=O)O)NC(=O)CCC(=O)NCCCOCCOCCOCCCNC(=O)CCCC[C@@H]1SC[C@@H]2NC(=O)N[C@@H]21)[C@@H](C)O)C(=O)N[C@H](C(=O)N[C@@H](CCCCNC(C)=O)C(=O)N[C@H](C(=O)O)C(C)C)[C@@H](C)O [PTEN_Ac]	0.535
CC[C@H](C)[C@H](NC(=O)[C@H](CCC(N)=O)NC(=O)[C@@H](NC(=O)[C@H](Cc1c[nH]cn1)NC(=O)[C@H](CCC(N)=O)NC(=O)[C@H](CC(=O)O)NC(=O)[C@H](CCC(=O)O)NC(=O)[C@H](CC(=O)O)NC(=O)CCC(=O)NCCCOCCOCCOCCCNC(=O)CCCC[C@@H]1SC[C@@H]2NC(=O)N[C@@H]21)[C@@H](C)O)C(=O)N[C@H](C(=O)N[C@@H](CCCCN)C(=O)N[C@H](C(=O)O)C(C)C)[C@@H](C)O [PTEN_11]	0.392

Here is the next item to consider.
Request - read-out BI | tested on ARHGEF12-1 (Homo sapiens) | compound CC[C@H](C)[C@H](NC(=O)[C@H](CCC(N)=O)NC(=O)[C@@H](NC(=O)[C@H](Cc1c[nH]cn1)NC(=O)[C@H](CCC(N)=O)NC(=O)[C@H](CC(=O)O)NC(=O)[C@H](CCC(=O)O)NC(=O)[C@H](CC(=O)O)NC(=O)CCC(=O)NCCCOCCOCCOCCCNC(=O)CCCC[C@@H]1SC[C@@H]2NC(=O)N[C@@H]21)[C@@H](C)O)C(=O)N[C@H](C(=O)N[C@@H](CCCNC(=N)N)C(=O)N[C@H](C(=O)O)C(C)C)[C@@H](C)O [PTEN_KR] ({X1-Suc}-DEDQHTQITRV-OH)
0.433

From: paper PMC7774954
